TEST_SUMMARY: in vivo
PARTICULARS: BALB/c nude, mouse, in vivo, iv, total radioactivity, % ID/g Liver
MEASURED_METRIC: tissue uptake at 24 h (%ID/g)
Give a bare numeral; the unit %ID/g is implied.

INPUT: Requested field: tissue uptake at 24 h. Item: C[C@@H](O)[C@H](NC(=O)[C@@H]1CSSC[C@H](NC(=O)[C@@H](Cc2ccccc2)NC(=O)COCCOCCNC(=O)[C@H](CCCCNC(=O)c2cccc(NC(=O)N[C@@H]3CN(C4CCCCC4)c4ccccc4N(CC(=O)C(C)(C)C)C3=O)c2)NC(=O)CN2CCN(CC(=O)O)CCN(CC(=O)O)CCN(CC(=O)O)CC2)C(=O)N[C@@H](Cc2ccc(O)cc2)C(=O)N[C@H](Cc2c[nH]c3ccccc23)C(=O)N[C@@H](CCCCN)C(=O)N[C@@H]([C@@H](C)O)C(=O)N1)C(=O)O [Compound 177Lu-I-37, metal not drawn]
OUTPUT: 2.4

* * *

Relative Binding Affinity SSTR2 reference
TESTED_SYSTEM: SSTR2 (Rattus norvegicus)
Construct: host or cells: AR42J cells
Sequence (P30680 whole entry): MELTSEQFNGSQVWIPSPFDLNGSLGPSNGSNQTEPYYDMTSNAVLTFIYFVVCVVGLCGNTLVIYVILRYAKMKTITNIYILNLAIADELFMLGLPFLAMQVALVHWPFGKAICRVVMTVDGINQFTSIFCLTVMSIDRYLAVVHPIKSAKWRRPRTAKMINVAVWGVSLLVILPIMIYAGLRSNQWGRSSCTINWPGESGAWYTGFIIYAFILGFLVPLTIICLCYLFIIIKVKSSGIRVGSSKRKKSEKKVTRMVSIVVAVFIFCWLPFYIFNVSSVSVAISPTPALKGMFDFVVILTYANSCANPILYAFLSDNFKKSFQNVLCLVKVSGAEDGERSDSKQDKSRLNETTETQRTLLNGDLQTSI
TEST_SUMMARY: Competitive cell-binding assay on AR42J cells with 125I-C1 as competitive ligand
PARTICULARS: based on mean IC50, C-1 = 1.00
Please give the numeric answer without any surrounding text.

A selection of reference data follows.
| COMPOUND | TESTED_SYSTEM | Relative Binding Affinity SSTR2 |
| --- | --- | --- |
| C[C@@H](O)[C@@H]1NC(=O)[C@H](CCCCN)NC(=O)[C@@H](Cc2c[nH]c3ccccc23)NC(=O)[C@H](Cc2ccc(O)cc2)NC(=O)[C@@H](NC(=O)[C@@H](Cc2ccccc2)NC(=O)[C@H](CCCCNC(=O)[C@H](CCC(=O)O)NC(=O)c2cccc(NC(=O)N[C@@H]3CN(C4CCCCC4)c4ccccc4N(CC(=O)C(C)(C)C)C3=O)c2)NC(=O)CN2CCN(CC(=O)O)CCN(CC(=O)O)CCN(CC(=O)O)CC2)CSSC[C@@H](C(=O)N[C@H](CO)[C@@H](C)O)NC1=O [Compound I-6, DOTA-K(-E-Z360)-f[CYwKTC]-Thr(ol)] | SSTR2 (Rattus norvegicus) | 0.20 |
| C[C@@H](O)[C@H](NC(=O)[C@@H]1CSSC[C@H](NC(=O)[C@@H](Cc2ccccc2)NC(=O)COCCOCCNC(=O)[C@H](CCCCNC(=O)[C@H](CCC(=O)O)NC(=O)c2cccc(NC(=O)N[C@@H]3CN(C4CCCCC4)c4ccccc4N(CC(=O)C(C)(C)C)C3=O)c2)NC(=O)CN2CCN(CC(=O)O)CCN(CC(=O)O)CCN(CC(=O)O)CC2)C(=O)N[C@@H](Cc2ccc(O)cc2)C(=O)N[C@H](Cc2c[nH]c3ccccc23)C(=O)N[C@@H](CCCCN)C(=O)N[C@@H]([C@@H](C)O)C(=O)N1)C(N)=O [Compound I-3, DOTA-K(-E-Z360)-OEG-f[CYwKTC]T-NH2] | SSTR2 (Rattus norvegicus) | 0.50 |

Let's switch to this compound now.
INPUT: # query: Relative Binding Affinity SSTR2 | item "C[C@@H](O)[C@@H]1NC(=O)[C@H](CCCCN)NC(=O)[C@@H](Cc2c[nH]c3ccccc23)NC(=O)[C@H](Cc2ccc(O)cc2)NC(=O)[C@@H](NC(=O)[C@@H](Cc2ccccc2)NC(=O)COCCOCCNC(=O)[C@H](CCCCNC(=O)[C@H](CCC(=O)O)NC(=O)c2cccc(NC(=O)N[C@@H]3CN(C4CCCCC4)c4ccccc4N(CC(=O)C(C)(C)C)C3=O)c2)NC(=O)CN2CCN(CC(=O)O)CCN(CC(=O)O)CCN(CC(=O)O)CC2)CSSC[C@@H](C(=O)N[C@H](CO)[C@@H](C)O)NC1=O" | system: SSTR2 (Rattus norvegicus)
OUTPUT: 0.10

* * *

tissue uptake at 24 h reference
TEST_SUMMARY: in vivo
PARTICULARS: BALB/c nude, mouse, in vivo, iv, total radioactivity, uptake Spleen
Give a bare numeral; the unit %ID/g is implied.

| COMPOUND | ENDPOINT_UNIT | tissue uptake at 24 h |
| --- | --- | --- |
| C[C@@H](O)[C@H](NC(=O)[C@@H]1CSSC[C@H](NC(=O)[C@@H](Cc2ccccc2)NC(=O)[C@H](CCCCNC(=O)c2cccc(NC(=O)N[C@@H]3CN(C4CCCCC4)c4ccccc4N(CC(=O)C(C)(C)C)C3=O)c2)NC(=O)CCOCCOCCOCCNC(=O)CN2CCN(CC(=O)O)CCN(CC(=O)O)CCN(CC(=O)O)CC2)C(=O)N[C@@H](Cc2ccc(O)cc2)C(=O)N[C@H](Cc2c[nH]c3ccccc23)C(=O)N[C@@H](CCCCN)C(=O)N[C@@H]([C@@H](C)O)C(=O)N1)C(=O)O [Compound I-48, DOTA-PEG3-K(Z360)-f[CYwKTC]T-OH] | %ID/g | 1.02 |

Let's switch to this compound now.
INPUT: Requested field: tissue uptake at 24 h. Item: C[C@@H](O)[C@H](NC(=O)[C@@H]1CSSC[C@H](NC(=O)[C@@H](Cc2ccccc2)NC(=O)CCCCCCCNC(=O)[C@H](CCCCNC(=O)c2cccc(NC(=O)N[C@@H]3CN(C4CCCCC4)c4ccccc4N(CC(=O)C(C)(C)C)C3=O)c2)NC(=O)CN2CCN(CC(=O)O)CCN(CC(=O)O)CCN(CC(=O)O)CC2)C(=O)N[C@@H](Cc2ccc(O)cc2)C(=O)N[C@H](Cc2c[nH]c3ccccc23)C(=O)N[C@@H](CCCCN)C(=O)N[C@@H]([C@@H](C)O)C(=O)N1)C(=O)O [Compound I-61, DOTA-K(Z360)-Aoc-f[CYwKTC]T-OH]
OUTPUT: 28.3

* * *

TEST_SUMMARY: in vivo
PARTICULARS: BALB/c nude, mouse, in vivo, iv, total radioactivity, % ID/g Kidney
MEASURED_METRIC: tissue uptake at 72 h (%ID/g)
Give a bare numeral; the unit %ID/g is implied.

INPUT: Requested field: tissue uptake at 72 h. Item: C[C@@H](O)[C@H](NC(=O)[C@@H]1CSSC[C@H](NC(=O)[C@@H](Cc2ccccc2)NC(=O)[C@H](CCCCNC(=O)COCCOCCNC(=O)c2cccc(NC(=O)N[C@@H]3CN(C4CCCCC4)c4ccccc4N(CC(=O)C(C)(C)C)C3=O)c2)NC(=O)CN2CCN(CC(=O)O)CCN(CC(=O)O)CCN(CC(=O)O)CC2)C(=O)N[C@@H](Cc2ccc(O)cc2)C(=O)N[C@H](Cc2c[nH]c3ccccc23)C(=O)N[C@@H](CCCCN)C(=O)N[C@@H]([C@@H](C)O)C(=O)N1)C(=O)O [^177Lu-I-36, metal not drawn]
OUTPUT: 14.2

* * *

TEST_SUMMARY: in vivo
PARTICULARS: BALB/c nude, mouse, in vivo, iv, total radioactivity, % ID/g Adrenal gland
# label = true if tissue uptake at 4 h >= 3 %ID/g else false

Check out these entries, answers already filled in.
| MOLECULE | ASSIGNED_CATEGORY |
| --- | --- |
| C[C@@H](O)[C@H](NC(=O)[C@@H]1CSSC[C@H](NC(=O)[C@@H](Cc2ccccc2)NC(=O)CN2CCN(CC(=O)O)CCN(CC(=O)O)CCN(CC(=O)O)CC2)C(=O)N[C@@H](Cc2ccc(O)cc2)C(=O)N[C@H](Cc2c[nH]c3ccccc23)C(=O)N[C@@H](CCCCN)C(=O)N[C@@H]([C@@H](C)O)C(=O)N1)C(=O)O [^177Lu-C-1, metal not drawn, reference compound] | true |
| C[C@@H](O)[C@H](NC(=O)[C@@H]1CSSC[C@H](NC(=O)[C@@H](Cc2ccccc2)NC(=O)[C@H](CCCCNC(=O)c2cccc(NC(=O)N[C@@H]3CN(C4CCCCC4)c4ccccc4N(CC(=O)C(C)(C)C)C3=O)c2)NC(=O)COCCOCCNC(=O)CN2CCN(CC(=O)O)CCN(CC(=O)O)CCN(CC(=O)O)CC2)C(=O)N[C@@H](Cc2ccc(O)cc2)C(=O)N[C@H](Cc2c[nH]c3ccccc23)C(=O)N[C@@H](CCCCN)C(=O)N[C@@H]([C@@H](C)O)C(=O)N1)C(=O)O [^177Lu-I-35, metal not drawn] | false |
| C[C@@H](O)[C@H](NC(=O)[C@@H]1CSSC[C@H](NC(=O)[C@@H](Cc2ccccc2)NC(=O)COCCOCCNC(=O)COCCOCCNC(=O)[C@H](CCCCNC(=O)c2cccc(NC(=O)N[C@@H]3CN(C4CCCCC4)c4ccccc4N(CC(=O)C(C)(C)C)C3=O)c2)NC(=O)CN2CCN(CC(=O)O)CCN(CC(=O)O)CCN(CC(=O)O)CC2)C(=O)N[C@@H](Cc2ccc(O)cc2)C(=O)N[C@H](Cc2c[nH]c3ccccc23)C(=O)N[C@@H](CCCCN)C(=O)N[C@@H]([C@@H](C)O)C(=O)N1)C(=O)O [Compound 177Lu-I-39, metal not drawn] | false |
| C[C@@H](O)[C@H](NC(=O)[C@@H]1CSSC[C@H](NC(=O)[C@@H](Cc2ccccc2)NC(=O)[C@H](CCCCNC(=O)COCCOCCNC(=O)c2cccc(NC(=O)N[C@@H]3CN(C4CCCCC4)c4ccccc4N(CC(=O)C(C)(C)C)C3=O)c2)NC(=O)CN2CCN(CC(=O)O)CCN(CC(=O)O)CCN(CC(=O)O)CC2)C(=O)N[C@@H](Cc2ccc(O)cc2)C(=O)N[C@H](Cc2c[nH]c3ccccc23)C(=O)N[C@@H](CCCCN)C(=O)N[C@@H]([C@@H](C)O)C(=O)N1)C(=O)O [^177Lu-I-36, metal not drawn] | false |

Okay, now this molecule:
INPUT: For this molecule, is measured tissue uptake at 4 h 3 %ID/g or higher? C[C@@H](O)[C@H](NC(=O)[C@@H]1CSSC[C@H](NC(=O)[C@@H](Cc2ccccc2)NC(=O)COCCOCCNC(=O)[C@H](CCCCNC(=O)c2cccc(NC(=O)N[C@@H]3CN(C4CCCCC4)c4ccccc4N(CC(=O)C(C)(C)C)C3=O)c2)NC(=O)CN2CCN(CC(=O)O)CCN(CC(=O)O)CCN(CC(=O)O)CC2)C(=O)N[C@@H](Cc2ccc(O)cc2)C(=O)N[C@H](Cc2c[nH]c3ccccc23)C(=O)N[C@@H](CCCCN)C(=O)N[C@@H]([C@@H](C)O)C(=O)N1)C(=O)O [Compound 177Lu-I-37, metal not drawn]
OUTPUT: false
